# Test system: Plasmodium falciparum
# experiment: GSK_TCMDC: Inhibition of Plasmodium falciparum Dd2 in whole red blood cells, using parasite LDH activity as an index of growth. Test compounds present at 2uM
# Format: functional
The entries below come with measured Inhibition values attached.
measuredMetric: Inhibition (%)

> print(dat)
                                   compound  measuredmetric  recordednumber
1  O=C(Nc1ccc2oc(-c3ccc(Cl)cc3Cl)nc2c1)c1ccc([N+](=O)[O-])o1      Inhibition              78
2  Cc1cccc2nc(-c3ccc(-c4cccc(NC(=O)c5cncn5C)c4)s3)[nH]c12      Inhibition              16
3  O=C(Nc1ccc(-c2ccc(-c3nc4ccccc4[nH]3)s2)cc1)Nc1ccc(F)c(F)c1F      Inhibition              97
4  Nc1nc(N)c2c(Cl)c(CNc3cccc(C(=O)O)c3)ccc2n1      Inhibition              97
5     COc1ccc2[nH]ccc(=NN=Cc3ccc(F)cc3)c2c1      Inhibition              54
6  COc1ccc(-c2cccc(NC(=O)c3cccc(C#N)c3)c2)cc1CN1CCCC1.O=C(O)C(F)(F)F      Inhibition              32
7  CC(C)C[C@@H](NC(=O)NC1CCC(CCN2C3CCC2CC(OC(=O)C(CO)c2ccccc2)C3)CC1)C(O)(c1ccccc1)c1ccccc1 (some centres undefined)      Inhibition              71
8  CCCCOc1ccc(-n2c(Nc3ccccc3)nc3cc(S(N)(=O)=O)ccc32)cc1      Inhibition              72
9  COc1ccc(Cl)cc1N1CCN(CCCNC(=O)c2ccc(-c3nc4cc(Cl)c(C)cc4[nH]3)s2)CC1      Inhibition              97

Source: ChEMBL document CHEMBL1157539
